Target: T1, extracellular domain of human BCMA (human, UniProt Q02223 1-54)
T1 construct: amine-linked to Octet AR2G tips; also called hsBCMA; BCMA (human)
T1 sequence: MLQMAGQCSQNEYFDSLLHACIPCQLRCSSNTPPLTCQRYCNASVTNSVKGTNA
Experiment: Octet BLI; Fab 200 nM
The following binders are listed with their measured Kd values.
attribute-measured: Kd (nM)

>>> measured_result("AB200-R1H32-R2Vk1 (Fab, V domains shown) VH: QVQLVQSGAEVKKPGSSVKVSCKASGGTFSNYWMHWVRQAPGQGLEWMGATYRSHSDTYYNQKFKSRVTITADKSTSTAYMELSSLRSEDTAVYYCARGAIYHGYDVIDNWGQGTLVTVSS VL: DIQMTQSPSSLSASVGDRVTITCRASQSISSYLNWYQQKPGKAPKLLIYAASSLQSGVPSRFSGSGSGTDFTLTISSLQPEDFATYYCQQFRKLPWSFGQGTKLEIKR")
1.27
>>> measured_result("AB200-R1H32-R2Vk9 (Fab, V domains shown) VH: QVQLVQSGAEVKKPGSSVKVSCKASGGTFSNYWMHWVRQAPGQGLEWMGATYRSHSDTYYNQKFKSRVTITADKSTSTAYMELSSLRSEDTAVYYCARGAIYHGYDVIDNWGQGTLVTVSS VL: DIQMTQSPSSLSASVGDRVTITCRASQSISSYLNWYQQKPGKAPKLLIYAASSLQSGVPSRFSGSGSGTDFTLTISSLQPEDFATYYCQQYRRLPWSFGQGTKLEIKR")
1.43
>>> measured_result("AB200-R1H32-R2Vk20 (Fab, V domains shown) VH: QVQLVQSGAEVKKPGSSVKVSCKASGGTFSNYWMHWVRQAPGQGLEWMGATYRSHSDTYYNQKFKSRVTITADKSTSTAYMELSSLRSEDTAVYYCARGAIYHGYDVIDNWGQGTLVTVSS VL: DIQMTQSPSSLSASVGDRVTITCRASQSISSYLNWYQQKPGKAPKLLIYATSNLQSGVPSRFSGSGSGTDFTLTISSLQPEDFATYYCQQYRRIPWTFGQGTKLEIKR")
0.867
>>> measured_result("AB200-R1H32-R2Vk26 (Fab, V domains shown) VH: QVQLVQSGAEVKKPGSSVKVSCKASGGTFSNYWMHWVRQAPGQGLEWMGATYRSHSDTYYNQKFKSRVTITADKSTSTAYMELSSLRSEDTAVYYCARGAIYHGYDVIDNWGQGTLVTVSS VL: DIQMTQSPSSLSASVGDRVTITCRASQSISSYLNWYQQKPGKAPKLLIYATSNIQSGVPSRFSGSGSGTDFTLTISSLQPEDFATYYCQQFRRLPWTFGQGTKLEIKR")
1.06
>>> measured_result("AB200-R1H32-R2Vk27 (Fab, V domains shown) VH: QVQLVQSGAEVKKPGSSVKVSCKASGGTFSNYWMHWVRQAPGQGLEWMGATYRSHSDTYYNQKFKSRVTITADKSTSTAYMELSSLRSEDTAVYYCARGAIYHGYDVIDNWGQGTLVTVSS VL: DIQMTQSPSSLSASVGDRVTITCRASQSISSYLNWYQQKPGKAPKLLIYATSNIQSGVPSRFSGSGSGTDFTLTISSLQPEDFATYYCQQYRKIPWSFGQGTKLEIKR")
1.21
